method-notes: inhibitors of the yeast RAM network, pilot screen, dse1pr::URA3 reporter, 5-FOA selection (AID 869);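 further: 0% = DMSO wells with no growth and 100% = 10 µM 1-NA-PP1 with full growth; RAM network block rescues cells from 5-FOA so hits raise OD615 growth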
assay-context: S. cerevisiae dse1pr::URA3 5-FOA growth, OD615, 2 d; at 10 µM; active compounds read high; strain carries analog-sensitive mutant Cbk1 kinase
Active and inactive are the calls of the source.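 How the source made its calls: active means inhibition over a set limit, the all-compound mean plus 3 SD, in both replicate runs; inconclusive means over that limit in just one replicate run; inactive means at or under that limit in both runs.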

>  <molecule>
Nc1nonc1/C(=N/O)N1CCN(CCO)CC1

>  <inhibition>
1.46% (inactive)

$$$$
>  <molecule>
Cc1cc(OCCN2CCCC2)ccc1C(C)C

>  <inhibition>
2.1% (inactive)

$$$$
>  <molecule>
COc1ccc(-c2cc(C(=O)O)c3ccccc3n2)c(OC)c1

>  <inhibition>
1.47% (inactive)

$$$$
>  <molecule>
COCCCN(C(=O)Nc1ccccc1)C(C)c1ccncc1 (configuration not stated)

>  <inhibition>
1.18% (inactive)

$$$$
>  <molecule>
CC(/C=C/c1ccccc1)=N/O

>  <inhibition>
-0.595% (inactive)

$$$$
>  <molecule>
COc1ccc(OC)c2c(C)cc(NCCN3CCOCC3)nc12

>  <inhibition>
1.78% (inactive)

$$$$
>  <molecule>
Cc1ccc(CC2CC(=O)N(c3cc(C)on3)C2=O)cc1 (configuration not stated)

>  <inhibition>
1.73% (inactive)

$$$$
>  <molecule>
CC(=O)c1ccc(C(=O)Nc2ccc(N3CCOCC3)cc2)cc1

>  <inhibition>
0.45% (inactive)

$$$$
>  <molecule>
COc1ccc(NC(=O)[C@H](CCS(C)(=O)=O)N2Cc3ccccc3C2=O)c(OC)c1

>  <inhibition>
2.29% (inactive)

$$$$
>  <molecule>
O=C(CSCc1ccc(Cl)cc1)c1ccco1

>  <inhibition>
0.695% (inactive)

$$$$
>  <molecule>
CCN1CCN(CC(=O)Nc2cccc(C)c2C)C(=O)C1=O

>  <inhibition>
2.46% (inactive)

$$$$
>  <molecule>
COc1cccc(-c2nc(C(N)=O)c3[nH]c(=O)n(-c4cccc(Cl)c4)c3n2)c1OC

>  <inhibition>
4.14% (inactive)

$$$$
>  <molecule>
O=C(CCc1ccccc1)Nc1nnc(-c2cccs2)o1

>  <inhibition>
1.6% (inactive)

$$$$
>  <molecule>
CCOc1ccc(C2c3c(oc4cc(C)c(C)cc4c3=O)C(=O)N2CCCN2CCOCC2)cc1 (configuration not stated)

>  <inhibition>
0.615% (inactive)

$$$$
>  <molecule>
O=C(NC1CCN(Cc2ccccc2)CC1)C1CCN(c2nnc(-n3cccc3)s2)CC1

>  <inhibition>
0.53% (inactive)

$$$$
>  <molecule>
O=C(c1ccc2snnc2c1)N1CCCC1

>  <inhibition>
1.14% (inactive)

$$$$
>  <molecule>
O=C1CC(c2ccc(S(=O)(=O)NC3CC3)cc2)CN1 (configuration not stated)

>  <inhibition>
0.075% (inactive)

$$$$
>  <molecule>
Cc1c(C#N)c2ccccc2n1CC(=O)NCCc1c[nH]c2ccccc12

>  <inhibition>
3.73% (inactive)

$$$$
>  <molecule>
Cc1cc(C)cc(N(CC(=O)N2CCN(c3ccccc3)CC2)S(=O)(=O)c2c(C)noc2C)c1

>  <inhibition>
0.57% (inactive)

$$$$
>  <molecule>
CCOc1ccccc1NC(=O)CSc1nnc(-c2ccco2)n1Cc1ccco1

>  <inhibition>
-0.165% (inactive)

$$$$
>  <molecule>
O=C(NC1=NCCS1)c1csc2ccccc12

>  <inhibition>
1.16% (inactive)

$$$$
>  <molecule>
COc1ccc(N2CCN(c3cc(=O)n(Cc4ccc(F)cc4)c(=O)[nH]3)CC2)cc1

>  <inhibition>
0.215% (inactive)

$$$$
>  <molecule>
O=C1CCc2cc(S(=O)(=O)NC(Cc3ccccc3)C(=O)NCC3CCCO3)ccc2N1 (configuration not stated)

>  <inhibition>
2.2% (inactive)

$$$$
>  <molecule>
CCOC(=O)C1=C(C)Nc2nc(C)nn2C1c1ccc(C)cc1 (configuration not stated)

>  <inhibition>
1.9% (inactive)

$$$$
>  <molecule>
Oc1c(C(c2cccc(F)c2)N2CCN(Cc3ccccc3)CC2)sc2ncnn12 (configuration not stated)

>  <inhibition>
0.05% (inactive)

$$$$
>  <molecule>
CC(=NCCc1ccccc1)C1=C(O)COC1=O

>  <inhibition>
0.87% (inactive)

$$$$
>  <molecule>
Cc1ccc2c(c1)NCC(C(=O)NC1CCC(C)CC1)O2 (configuration not stated)

>  <inhibition>
1% (inactive)

$$$$
>  <molecule>
COc1cc(C(=O)Nc2cc(-c3nc4cc(C)ccc4o3)ccc2C)cc(OC)c1OC

>  <inhibition>
0.43% (inactive)

$$$$
>  <molecule>
COC(=O)c1nnn(Cc2ccccc2)c1N

>  <inhibition>
0.585% (inactive)

$$$$
>  <molecule>
CCOC(=O)c1cnc2nc[nH]n2c1=O

>  <inhibition>
0.33% (inactive)

$$$$
>  <molecule>
CCC(C)OC(=O)C1=C(C)NC(=O)NC1c1ccc(F)cc1 (configuration not stated)

>  <inhibition>
1.36% (inactive)

$$$$
>  <molecule>
Nc1cccc(C(=O)Nc2ccc3nc(-c4cccnc4)[nH]c3c2)c1

>  <inhibition>
2.84% (inactive)

$$$$
>  <molecule>
CCc1nccn1S(=O)(=O)c1ccc2ccccc2c1

>  <inhibition>
0.7% (inactive)

$$$$
>  <molecule>
CC(=O)c1c(NCc2ccccc2)nc(=O)n(-c2ccccc2)c1C

>  <inhibition>
1.98% (inactive)

$$$$
>  <molecule>
COc1ccc(NC(=O)NCCCN2CCCC2=O)cc1

>  <inhibition>
0.945% (inactive)

$$$$
>  <molecule>
O=C(C1COc2ccccc2O1)N1CCn2c(nc3ccccc32)C1 (configuration not stated)

>  <inhibition>
1.85% (inactive)

$$$$
>  <molecule>
COc1ccc(OC)c(C2CC(=O)N3CN(c4ccccc4)CSC3=C2C#N)c1 (configuration not stated)

>  <inhibition>
1.09% (inactive)

$$$$
>  <molecule>
CCOC(=O)C1C(c2cccc(Cl)c2Cl)NC(=O)NC1(O)C(F)(F)F (configuration not stated)

>  <inhibition>
1.15% (inactive)

$$$$
>  <molecule>
COc1ccc(-n2c(Cc3cccn3C)nnc2SCC(=O)N2CCCC2)cc1

>  <inhibition>
0.04% (inactive)

$$$$
>  <molecule>
O=C(NCC1CCCO1)c1ccc2c(=O)n(CCc3ccccc3)c(=O)[nH]c2c1 (configuration not stated)

>  <inhibition>
4.28% (inactive)

$$$$
>  <molecule>
COC(=O)c1cc(OC)c(OC)cc1NC(=O)C1CCCO1 (configuration not stated)

>  <inhibition>
0.545% (inactive)

$$$$
>  <molecule>
O=C(Nc1ccccc1)C1CC(=O)N(C2CCCCC2)C1 (configuration not stated)

>  <inhibition>
1.58% (inactive)

$$$$
>  <molecule>
Cc1ccc(NC(=O)NCCN2C(=O)C3C4C=CC(C4)C3C2=O)cc1 (configuration not stated)

>  <inhibition>
0.865% (inactive)

$$$$
>  <molecule>
CC(C)NS(=O)(=O)c1ccc(CCC(=O)NCc2cccnc2)cc1

>  <inhibition>
1.33% (inactive)

$$$$
>  <molecule>
O=C(NCC1CCCO1)c1ccc2nc(N3CCCCC3)sc2c1 (configuration not stated)

>  <inhibition>
2.37% (inactive)

$$$$
>  <molecule>
Cc1ccc(CCN2CC(C(=O)NCCCN3CCN(C)CC3)CC2=O)cc1 (configuration not stated)

>  <inhibition>
-0.675% (inactive)

$$$$
>  <molecule>
CC1CCCCN1CCNC(=O)c1cc2c(-c3ccccc3F)nn(C)c2s1 (configuration not stated)

>  <inhibition>
0.095% (inactive)

$$$$
